Entries and their Phage binding ELISA signal, Anti-PSMA Fab values follow.
- tgt: T1, PSMA Fab
- T1 construct: also called Anti-PSMA Fab; 006 PSMA Fab
- assay_explanation: clonal phage ELISA; biotinylated PSMA Fab on neutravidin plate; anti-M13 HRP detection
// no unit string in output, number only

Example binders with recorded Phage binding ELISA signal, Anti-PSMA Fab:
binder: FFKMCIPEWMCSGF [Phage-3263]
recorded_measurement: 1.91
--
binder: IVPWCKPAWMCAVS [Phage-3255]
recorded_measurement: 1.93
--
binder: PTPVCKPGWMCDLF [Phage-3261]
recorded_measurement: 1.92
--
binder: EIMLCKPEWMCYGF [Phage-3265]
recorded_measurement: 1.91
--
binder: SIPKCMPEWMCIGL [Phage-3253]
recorded_measurement: 1.93

Query string: Return Phage binding ELISA signal, Anti-PSMA Fab for the following binder: LGNLCVPPWMCQGF [Phage-3257]
Result string: 1.92

Query string: Return Phage binding ELISA signal, Anti-PSMA Fab for the following binder: DGFICRPEWMCQWL [Phage-3256]
Result string: 1.93
